System: Acinetobacter baumannii
Experiment: Antibacterial activity against wild type Acinetobacter baumannii ATCC 17978 assessed as inhibition of microbial growth measured after 24 hrs by broth microdilution method
Type: functional, organism-based
Conditions: ATCC 17978, 24 h
Value kind: IC50 (µM)
Write it as a number; the unit µM goes unstated.

# Smiles str, IC50 (µM)
measured = [
    ("COC(=O)c1cncc(-c2ccc(N3C[C@H](CO)OC3=O)cc2F)c1", 19),
]

Which IC50 value is on record for O=C1O[C@@H](CO)CN1c1ccc(-c2ccnc(N3CCCC3)c2)c(F)c1 ? 19
